B1: TRIM9 (parent)
chain: PRNSCITCPQCHRSLILDDRGLRG

# Variants of: B1
# ASSAY_INFO: protein stability index of a GFP-peptide fusion (GPS, HEK-293T) (PSI 1-6); higher = more stable;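 also: lentivirally expressed fusions sorted by FACS into six bins by GFP to DsRed ratio, PSI derived from sequencing read proportions per bin multiplied by bin number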
# CONDITION_SUMMARY: c terminus: a fixed tail appended
Use 2 as the dividing line for protein stability index, with the line itself on the Yes side and lower values as No.

>>> category_label("I6M")
"Yes"
>>> category_label("I16R")
"Yes"

Challenge: Does the variant R20T have recorded protein stability index that is 2 or more?
Response given: Yes

Challenge: Another variant to check: Q10H
Response given: Yes

Challenge: For D19P then?
Response given: No
